Where do the numbers come from? From paper doi:10.1101/2024.12.30.630793.

Biological target: Acb4 (SPO1 Acb4) (Bacillus phage SPO1)
Construct: recombinant from E. coli BL21(DE3)-RIL, N-terminal 6xHis-SUMO2 fusion, tag cleaved with SENP2; 96 amino acids, homotetramer
Sequence (B6V2Y3 1-96): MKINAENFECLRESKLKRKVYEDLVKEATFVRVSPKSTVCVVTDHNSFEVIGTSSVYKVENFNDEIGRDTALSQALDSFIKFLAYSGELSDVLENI
Test: Electrophoretic mobility shift assay: titration of recombinant Acb4 with 20 nM alpha-32P-radiolabelled cyclic dinucleotide, 50 mM Tris-HCl pH 7.5, 5 mM MgCl2, 10 mM KCl, 1 mM TCEP, 30 min on ice, nondenaturing 6% PAGE, fraction bound fitted to a single binding model.
Conditions: n = 2
Recorded metric: Kd (nM)
Numbers only, in nM.

Nc1ncnc2c1ncn2[C@@H]1O[C@@H]2COP(=O)(O)O[C@@H]3[C@H](O)[C@@H](COP(=O)(O)O[C@H]2[C@H]1O)O[C@H]3n1ccc(=O)[nH]c1=O [2′3′-cUA]	641
Nc1nc2c(ncn2[C@@H]2O[C@@H]3COP(=O)(O)O[C@H]4[C@@H](O)[C@H](n5cnc6c(N)ncnc65)O[C@@H]4COP(=O)(O)O[C@H]3[C@H]2O)c(=O)[nH]1 [3′3′-cGAMP]	157

# ---- query molecule ----
Name the recorded Kd of the molecule listed here: Nc1ncnc2c1ncn2[C@@H]1O[C@@H]2COP(=O)(O)O[C@H]3[C@@H](O)[C@H](n4ccc(=O)[nH]c4=O)O[C@@H]3COP(=O)(O)O[C@H]2[C@H]1O [3′3′-cUA]
262
